assayTarget: UniProt:P07550
Sequence (P07550 whole entry, looked up): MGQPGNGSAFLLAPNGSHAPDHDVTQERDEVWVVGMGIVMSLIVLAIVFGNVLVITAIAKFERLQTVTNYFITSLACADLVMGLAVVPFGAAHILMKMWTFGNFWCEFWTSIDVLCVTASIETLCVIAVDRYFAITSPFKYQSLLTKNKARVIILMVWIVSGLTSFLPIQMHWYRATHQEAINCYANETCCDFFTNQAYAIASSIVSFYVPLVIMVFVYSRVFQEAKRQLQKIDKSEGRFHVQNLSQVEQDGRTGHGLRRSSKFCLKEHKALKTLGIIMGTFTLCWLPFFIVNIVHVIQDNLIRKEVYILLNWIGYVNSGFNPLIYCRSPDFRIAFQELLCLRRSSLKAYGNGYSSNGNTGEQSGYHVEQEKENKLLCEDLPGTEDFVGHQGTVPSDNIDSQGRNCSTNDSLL
testName: Intrinsic activity (IA) human Beta-2 adrenergic receptor (at 30 uM, represent by the percentage of the maximal response attained by isoproterenol)
Type: functional
valueKind: IA
Lab note: record just the number, no unit beside it.

stdin: Any idea what IA was measured for CC1CCN(S(=O)(=O)Nc2ccc(CC(C)(C)NC[C@H](O)c3cccnc3)cc2)CC1 ?
stdout: 6

stdin: Subsequent entry: CN(C)S(=O)(=O)Nc1ccc(CCNC[C@H](O)c2cccnc2)cc1
stdout: 11

stdin: Item: C[C@@H]1C[C@H](C)CN(S(=O)(=O)Nc2ccc(CC(C)(C)NC[C@H](O)c3cccnc3)cc2)C1
stdout: 11

stdin: Repeat with O=S(=O)(Nc1ccc(CCNC[C@H](O)c2cccnc2)cc1)c1ccc(-c2nc(-c3ccc(C(F)(F)F)cc3)cs2)cc1
stdout: 1

stdin: Subsequent entry: CC(C)(Cc1ccc(NS(=O)(=O)N2CCN(Cc3ccccc3)CC2)cc1)NC[C@H](O)c1cccnc1
stdout: 13

stdin: What about CC1CCN(S(=O)(=O)Nc2ccc(CCNC[C@H](O)c3cccnc3)cc2)CC1 ?
stdout: 8

stdin: CN(C1CCCCC1)S(=O)(=O)Nc1ccc(CCNC[C@H](O)c2cccc(Cl)c2)cc1 ?
stdout: 5

----------
assayTarget: Beta-3 adrenergic receptor (Homo sapiens)
testName: Agonist activity (EC50) was assessed by measuring cAMP levels in CHO cells expressing cloned human Beta-3 adrenergic receptor
Sequence (P13945 whole entry): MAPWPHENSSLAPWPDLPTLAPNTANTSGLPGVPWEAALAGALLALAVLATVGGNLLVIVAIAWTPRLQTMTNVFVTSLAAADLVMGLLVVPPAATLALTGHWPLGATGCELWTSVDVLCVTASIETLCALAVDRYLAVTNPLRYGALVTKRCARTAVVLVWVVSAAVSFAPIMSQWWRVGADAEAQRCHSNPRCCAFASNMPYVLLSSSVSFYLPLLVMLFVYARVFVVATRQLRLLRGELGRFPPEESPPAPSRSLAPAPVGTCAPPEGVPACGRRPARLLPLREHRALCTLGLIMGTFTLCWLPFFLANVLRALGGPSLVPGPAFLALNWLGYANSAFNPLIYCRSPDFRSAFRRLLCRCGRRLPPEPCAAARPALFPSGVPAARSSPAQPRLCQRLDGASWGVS
pEC50: −log10 of the molar value.
Classify by measured pEC50: fulfilled if it is equal to or exceeds 8, not fulfilled if it is smaller.

{"testSmiles": "COCCNS(=O)(=O)Nc1ccc(CC(C)(C)NC[C@H](O)c2cccnc2)cc1", "discreteLabel": "not fulfilled"}
{"testSmiles": "CN(C)S(=O)(=O)Nc1ccc(CC(C)(C)NC[C@H](O)c2cccnc2)cc1", "discreteLabel": "not fulfilled"}
{"testSmiles": "O=S(=O)(Nc1ccc(CCNC[C@H](O)c2cccnc2)cc1)N1CCC(c2ccccc2)CC1", "discreteLabel": "not fulfilled"}

Turning now to a further record.
stdin: Is pEC50 at least 8? Consider C[C@@H]1C[C@H](C)CN(S(=O)(=O)Nc2ccc(CC(C)(C)NC[C@H](O)c3cccnc3)cc2)C1
stdout: fulfilled

----------
assayTarget: Beta-3 adrenergic receptor (Homo sapiens, UniProt P13945)
testName: Intrinsic activity (IA) at human Beta-3 adrenergic receptor (represented by the percentage of the maximal response attained by isoproterenol)
Assay type: functional
Sequence (P13945 whole entry, looked up): as the sequence (P13945 whole entry) above
Tag: 1 if measured IA is not below 100, 0 if it is.

{"testSmiles": "CC1CCN(S(=O)(=O)Nc2ccc(CCNC[C@H](O)c3cccnc3)cc2)CC1", "discreteLabel": 0}

stdin: hey, is IA for this one >= 100? CC(C)(Cc1ccc(NS(=O)(=O)N2CCN(Cc3ccccc3)CC2)cc1)NC[C@H](O)c1cccnc1
stdout: 1

stdin: Now give it for CN(C)S(=O)(=O)Nc1ccc(CCNC[C@H](O)c2cccnc2)cc1 too.
stdout: 0

stdin: Do the same for CN(C)S(=O)(=O)N(C)c1ccc(CCNC[C@H](O)c2cccc(Cl)c2)cc1 please
stdout: 1

stdin: Try the compound CN(C1CCCCC1)S(=O)(=O)Nc1ccc(CCNC[C@H](O)c2cccnc2)cc1
stdout: 0

----------
assayTarget: Beta-3 adrenergic receptor (Homo sapiens, UniProt P13945)
testName: Intrinsic activity (IA) at human Beta-3 adrenergic receptor (represented by the percentage of the maximal response attained by isoproterenol)
Assay type: functional
Overview of recorded IA for various compounds
Give the value as a plain number.

A selection of reference data follows.
{"testSmiles": "C[C@@H]1CN(S(=O)(=O)Nc2ccc(CC(C)(C)NC[C@H](O)c3cccnc3)cc2)C[C@H](C)O1", "IA": 85}
{"testSmiles": "CN(C1CCCCC1)S(=O)(=O)Nc1ccc(CCNC[C@H](O)c2cccc(Cl)c2)cc1", "IA": 62}
{"testSmiles": "O=S(=O)(Nc1ccc(CCNC[C@H](O)c2cccc(Cl)c2)cc1)NC1CCCCC1", "IA": 63}
{"testSmiles": "C[C@@H]1C[C@H](C)CN(S(=O)(=O)Nc2ccc(CCNC[C@H](O)c3cccnc3)cc2)C1", "IA": 95}
{"testSmiles": "CN(C)S(=O)(=O)Nc1ccc(CCNC[C@H](O)c2cccc(Cl)c2)cc1", "IA": 75}
{"testSmiles": "CC1CCN(S(=O)(=O)Nc2ccc(CC(C)(C)NC[C@H](O)c3cccnc3)cc2)CC1", "IA": 91}

stdin: Form field: reported IA of CN(C)S(=O)(=O)Nc1ccc(OCCNC[C@H](O)c2cccnc2)cc1
stdout: 96

stdin: Same question for O=S(=O)(Nc1ccc(CCNC[C@H](O)c2cccnc2)cc1)N1CCC(c2ccccc2)CC1 please.
stdout: 100

stdin: Try C[C@@H]1C[C@H](C)CN(S(=O)(=O)Nc2ccc(CC(C)(C)NC[C@H](O)c3cccnc3)cc2)C1 next.
stdout: 89
